Tested on: Hela (human cervical cancer) cells
assayExplanation: MTT cell growth inhibition, solid tumor cells
Assay type: cell-based
assaySetup: Homo sapiens; Hela, 72 h, MTT; read-out: IC50
So basically: is IC50 under 1 µg/mL? Then Condition met. Not under? Then Condition not met.

## Task Check if IC50 falls below 1 µg/mL for "COc1ccc2cc1Oc1ccc(cc1)C[C@H]1c3cc(c(OC)cc3CCN1C)Oc1c(OC3CCCC3)c(OC)cc3c1[C@H](C2)N(C)CC3" .
## Result Condition not met

## Task Is IC50 of COc1ccc2cc1Oc1ccc(cc1)C[C@H]1c3cc(c(OC)cc3CCN1C)Oc1c(OCC(O)CN3CCCC(C)C3)c(OC)cc3c1[C@H](C2)N(C)CC3 (stereo partly drawn) strictly below 1 µg/mL?
## Result Condition not met

## Task A record lists "COc1ccc2cc1Oc1ccc(cc1)C[C@H]1c3cc(c(OC)cc3CCN1C)Oc1c(OCc3cccc(F)c3F)c(OC)cc3c1[C@H](C2)N(C)CC3" . Is its IC50 below 1 µg/mL?
## Result Condition met

## Task is_below(IC50, 1 µg/mL) for "COc1ccc2cc1Oc1ccc(cc1)C[C@H]1c3cc(c(OC)cc3CCN1C)Oc1c(OC(=O)C3CC3)c(OC)cc3c1[C@H](C2)N(C)CC3" ?
## Result Condition not met

## Task Lab note: confirm whether the reported IC50 for this compound is below 1 µg/mL, equality not counting. compound: "COc1ccc2cc1Oc1ccc(cc1)C[C@H]1c3cc(c(OC)cc3CCN1C)Oc1c(OCC3CC3)c(OC)cc3c1[C@H](C2)N(C)CC3"
## Result Condition not met

## Task Below 1 µg/mL on IC50? Entry C=CCN(C)CC(O)COc1c(OC)cc2c3c1Oc1cc4c(cc1OC)CCN(C)[C@H]4Cc1ccc(cc1)Oc1cc(ccc1OC)C[C@@H]3N(C)CC2 (stereo partly drawn)
## Result Condition not met

## Task Lab note: IC50 threshold 1 µg/mL. Does this compound come in strictly under it? "C=C(C)COc1c(OC)cc2c3c1Oc1cc4c(cc1OC)CCN(C)[C@H]4Cc1ccc(cc1)Oc1cc(ccc1OC)C[C@@H]3N(C)CC2"
## Result Condition met

## Task I wonder whether "COc1ccc2cc1Oc1ccc(cc1)C[C@H]1c3cc(c(OC)cc3CCN1C)Oc1c(OC(=O)c3ccc(N(C)C)cc3)c(OC)cc3c1[C@H](C2)N(C)CC3" has IC50 below 1 µg/mL. Can you tell?
## Result Condition met

## Task Please state whether IC50 is below 1 µg/mL for COc1ccc2cc1Oc1ccc(cc1)C[C@H]1c3cc(c(OC)cc3CCN1C)Oc1c(OCC(O)CN3CCCCC3)c(OC)cc3c1[C@H](C2)N(C)CC3 (stereo partly drawn)
## Result Condition met

## Task Hello, is IC50 of the following compound strictly smaller than 1 µg/mL? COc1ccc2cc1Oc1ccc(cc1)C[C@H]1c3cc(c(OC)cc3CCN1C)Oc1c(OCC(O)CNCC3CC3)c(OC)cc3c1[C@H](C2)N(C)CC3 (stereo partly drawn)
## Result Condition not met

## Task API: query returns whether the compound falls strictly under 1 µg/mL in IC50. Query: COc1ccc2cc1Oc1ccc(cc1)C[C@H]1c3cc(c(OC)cc3CCN1C)Oc1c(OCC(O)CN3CCSCC3)c(OC)cc3c1[C@H](C2)N(C)CC3 (stereo partly drawn)
## Result Condition not met

====

System: NB4 (acute promyelocytic leukemia) cells
assayExplanation: MTT cell growth inhibition, leukemia cells
Format: cell-based
assaySetup: Homo sapiens; NB4, 72 h, MTT; read-out: IC50
Here, each record is paired with measured IC50 data.
Reply with the number and its unit after it.

Examples with answers:
compound="COc1ccc2cc1Oc1ccc(cc1)C[C@H]1c3cc(c(OC)cc3CCN1C)Oc1c(OCC(O)CN3CCSCC3)c(OC)cc3c1[C@H](C2)N(C)CC3 (stereo partly drawn)" tgt="NB4 (acute promyelocytic leukemia) cells" reportedvalue="0.99 µg/mL"
compound="C=CCN(C)CC(O)COc1c(OC)cc2c3c1Oc1cc4c(cc1OC)CCN(C)[C@H]4Cc1ccc(cc1)Oc1cc(ccc1OC)C[C@@H]3N(C)CC2 (stereo partly drawn)" tgt="NB4 (acute promyelocytic leukemia) cells" reportedvalue="0.59 µg/mL"
compound="COc1ccc2cc1Oc1ccc(cc1)C[C@H]1c3cc(c(OC)cc3CCN1C)Oc1c(OCC(O)CN3CCCC(C)C3)c(OC)cc3c1[C@H](C2)N(C)CC3 (stereo partly drawn)" tgt="NB4 (acute promyelocytic leukemia) cells" reportedvalue="0.28 µg/mL"
compound=COc1ccc2cc1Oc1ccc(cc1)C[C@H]1c3cc(c(OC)cc3CCN1C)Oc1c(OC3CCCC3)c(OC)cc3c1[C@H](C2)N(C)CC3 tgt="NB4 (acute promyelocytic leukemia) cells" reportedvalue="0.66 µg/mL"

Form: compound = "COc1cc(OC)cc(C(=O)Oc2c(OC)cc3c4c2Oc2cc5c(cc2OC)CCN(C)[C@H]5Cc2ccc(cc2)Oc2cc(ccc2OC)C[C@@H]4N(C)CC3)c1" ; IC50 = 0.22 µg/mL

The recorded IC50 for entry "COc1ccc2cc1Oc1ccc(cc1)C[C@H]1c3cc(c(OC)cc3CCN1C)Oc1c(OCc3ccc(C(F)(F)F)cc3)c(OC)cc3c1[C@H](C2)N(C)CC3" equals 0.99 µg/mL

====

System: H9 (acute lymphoblastic leukemia) cells
assayExplanation: MTT cell growth inhibition, leukemia cells
Format: cell-based, human
assaySetup: Homo sapiens; H9, 72 h, MTT; read-out: IC90
reportedEndpoint: IC90

compound=COc1ccc2cc1Oc1ccc(cc1)C[C@H]1c3cc(c(OC)cc3CCN1C)Oc1c(OS(=O)(=O)c3ccccc3)c(OC)cc3c1[C@H](C2)N(C)CC3 reportedendpoint=IC90 reportedvalue="4.99 µg/mL"
compound="COc1ccc2cc1Oc1ccc(cc1)C[C@H]1c3cc(c(OC)cc3CCN1C)Oc1c(OCC(O)CN3CCCC(C)C3)c(OC)cc3c1[C@H](C2)N(C)CC3 (stereo partly drawn)" reportedendpoint=IC90 reportedvalue="2 µg/mL"

IC90 in this record for "C=C(C)COc1c(OC)cc2c3c1Oc1cc4c(cc1OC)CCN(C)[C@H]4Cc1ccc(cc1)Oc1cc(ccc1OC)C[C@@H]3N(C)CC2" : 4 µg/mL

====

System: Jurkat (acute lymphoblastic leukemia) cells
assayExplanation: MTT cell growth inhibition, leukemia cells
Assay type: cell-based, human
assaySetup: Homo sapiens; Jurkat, 72 h, MTT; read-out: IC50
Lab note - cut at 0.6 µg/mL for IC50: Y if strictly below, N if not.

Consider the following illustrative entries.
compound="COc1ccc2cc1Oc1ccc(cc1)C[C@H]1c3cc(c(OC)cc3CCN1C)Oc1c(OS(=O)(=O)c3ccc(C)cc3)c(OC)cc3c1[C@H](C2)N(C)CC3 [BS-FC-102]" grouplabel=N
compound="C=CCN(C)CC(O)COc1c(OC)cc2c3c1Oc1cc4c(cc1OC)CCN(C)[C@H]4Cc1ccc(cc1)Oc1cc(ccc1OC)C[C@@H]3N(C)CC2 (stereo partly drawn) [BS-FC-409]" grouplabel=N

Switching to the query record.
## Task Lab note: confirm whether the reported IC50 for this compound is below 0.6 µg/mL, equality not counting. compound: COc1ccc2cc1Oc1ccc(cc1)C[C@H]1c3cc(c(OC)cc3CCN1C)Oc1c(OCC3CC3)c(OC)cc3c1[C@H](C2)N(C)CC3 [BS-FC-208]
## Result N

====

System: NB4 (acute promyelocytic leukemia) cells
assayExplanation: MTT cell growth inhibition, leukemia cells
Assay type: cell-based
assaySetup: Homo sapiens; NB4, 72 h, MTT; read-out: IC50
Binning scheme for IC50: low bracket: < 0.4 µg/mL; middle bracket: ≥ 0.4 µg/mL and < 0.5 µg/mL; high bracket: ≥ 0.5 µg/mL

molecule=COc1ccc2cc1Oc1ccc(cc1)C[C@H]1c3cc(c(OC)cc3CCN1C)Oc1c(OC(=O)c3c(F)cccc3Cl)c(OC)cc3c1[C@H](C2)N(C)CC3 grouplabel="low bracket"

## Task Input "COc1ccc2cc1Oc1ccc(cc1)C[C@H]1c3cc(c(OC)cc3CCN1C)Oc1c(OS(=O)(=O)c3ccc(C)cc3)c(OC)cc3c1[C@H](C2)N(C)CC3" ; output its category
## Result low bracket

## Task Please indicate the class for COc1ccc2cc1Oc1ccc(cc1)C[C@H]1c3cc(c(OC)cc3CCN1C)Oc1c(OCC(O)CN3CCN(C#N)CC3)c(OC)cc3c1[C@H](C2)N(C)CC3 (stereo partly drawn) based on its IC50.
## Result high bracket

## Task Could you place "COc1ccc2cc1Oc1ccc(cc1)C[C@H]1c3cc(c(OC)cc3CCN1C)Oc1c(OC(=O)c3ccc(N(C)C)cc3)c(OC)cc3c1[C@H](C2)N(C)CC3" in its proper category? Many thanks.
## Result low bracket

## Task Lab note: which band did COc1ccc2cc1Oc1ccc(cc1)C[C@H]1c3cc(c(OC)cc3CCN1C)Oc1c(OCC(O)CNCC3CC3)c(OC)cc3c1[C@H](C2)N(C)CC3 (stereo partly drawn) land in?
## Result middle bracket

## Task Hey, which category is "COc1ccc2cc1Oc1ccc(cc1)C[C@H]1c3cc(c(OC)cc3CCN1C)Oc1c(OCC3CC3)c(OC)cc3c1[C@H](C2)N(C)CC3" in, do you know?
## Result middle bracket

## Task Tag the class for "COc1ccc2cc1Oc1ccc(cc1)C[C@H]1c3cc(c(OC)cc3CCN1C)Oc1c(OS(=O)(=O)c3ccccc3)c(OC)cc3c1[C@H](C2)N(C)CC3"
## Result low bracket

## Task Band for "C=CCOc1c(OC)cc2c3c1Oc1cc4c(cc1OC)CCN(C)[C@H]4Cc1ccc(cc1)Oc1cc(ccc1OC)C[C@@H]3N(C)CC2" ?
## Result high bracket
